Target: T1, mf TFRC ecto-mmh (REGN2054), monomeric monkey (cyno) Tfrc ectodomain with C-terminal myc-myc-hexahistidine tag (monkey (cyno), Macaca fascicularis, UniProt H9EXL1 89-760)
T1 construct: range 89-760; also called mfTfR-mmh; mfTFR-mmh
T1 sequence (chain, as listed by the source): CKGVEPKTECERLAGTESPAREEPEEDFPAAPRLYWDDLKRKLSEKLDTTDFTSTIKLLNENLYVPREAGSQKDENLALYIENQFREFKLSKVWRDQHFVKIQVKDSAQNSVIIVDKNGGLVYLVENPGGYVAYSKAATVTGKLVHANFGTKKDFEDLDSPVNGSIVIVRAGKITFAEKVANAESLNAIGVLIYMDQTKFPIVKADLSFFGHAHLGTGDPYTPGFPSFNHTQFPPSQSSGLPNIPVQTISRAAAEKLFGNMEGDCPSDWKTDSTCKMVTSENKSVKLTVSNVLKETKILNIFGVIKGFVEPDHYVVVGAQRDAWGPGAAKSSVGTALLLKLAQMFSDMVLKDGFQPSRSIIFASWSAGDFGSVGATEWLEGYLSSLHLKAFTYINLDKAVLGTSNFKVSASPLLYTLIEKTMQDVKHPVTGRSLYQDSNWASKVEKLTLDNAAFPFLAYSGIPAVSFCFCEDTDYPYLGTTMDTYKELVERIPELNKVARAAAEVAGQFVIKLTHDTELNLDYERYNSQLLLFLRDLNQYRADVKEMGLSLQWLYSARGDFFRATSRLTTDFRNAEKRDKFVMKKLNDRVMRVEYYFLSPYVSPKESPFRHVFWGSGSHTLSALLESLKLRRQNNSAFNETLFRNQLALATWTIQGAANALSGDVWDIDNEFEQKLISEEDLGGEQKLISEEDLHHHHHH
Assay: SPR (Biacore), mAb captured on anti-human Fc, 100 nM mfTfR-mmh, 25 C
The recorded koff of each item maps onto one of these classes: bin 1 = under 0.0005 s⁻¹, bin 2 = from 0.0005 s⁻¹ up to 0.003 s⁻¹, bin 3 = 0.003 s⁻¹ and over

>>> classlabel("12808B (antibody, human IgG1, kappa, V domains shown, Tested as bivalent human IgG1 from CHO primary supernatant) VH: QLQLQESGPGLVKPSETLSLTCTVSGESISSNTYYWGWIRQPPGKGLEWIGSIDYSGTTNYNPSLKSRVTISVDTSRNHFSLRLRSVTAADTAVYYCAREWGNYGYYYGMDVWGQGTTVTVSS VL: DIQMTQSPSSLSASVGDRVTINCRASQGIRNDLGWYQQKPGKAPKRLIYAASSLQSGVPLRFSGSGSGTEFTLTINNLQPEDFATYYCLSHNSYPWTFGQGTKVEIKR")
"bin 1"

Task item: Which koff band matches 69263 (antibody, human IgG1, kappa, V domains shown, Tested as bivalent human IgG1 from CHO primary supernatant) VH: EVQLVESGGGLVQPGRSLRLSCAVSGFTFDDYAMHWVRQAPGKGLEWVSGISWNSGTRGYADSVKGRFTISRDNAKNSLYLQMNSLRGEDTALYYCVKDITISPNYYGMDVWGQGTTVTVSS VL: DIQMTQSPSSLSASVGDRVTITCRASQDISHYSAWYQQKPGKLPNLLIYAASTLQSGVPSRFSGSGSGTDFSLTTSSLQPEDVATYYCQKYNSVPLTFGGGTKVEIKR ?
Reply: bin 3

Task item: And what about the binder 69348 (antibody, human IgG1, kappa, V domains shown, Tested as bivalent human IgG1 from CHO primary supernatant) VH: QVQLVESGGGVVQPGRSLRLSCAASGFTFTTYGMHWVRQAPGKGLEWVAVIWYDGSNKYYGDSVKGRFTISRDNSKNTLYLQMNSLRVDDTAVYYCTRTHGYTRSSDGFDYWGQGTLVTVSS VL: DIQMTQSPSSLSASVGDRVTITCRASQSIRNVLGWFQQKPGKAPQRLIYAASSLQSGVPSRFSGSGSGTEFTLTISSLQPEDFATYYCLQHNFYPLTFGGGTKVEIKR ?
Reply: bin 1
